- ASSAY EXPLANATION: Cmax in rat at 3 mg/kg, po
- Format: ADME, organism-based
- Set-up: dose 3 mg/kg, route po
- CONDITION LABEL: in vivo
MEASURED METRIC: Cmax (nM)
Write the number in nM without appending the unit.

Data point: Cc1c(C(=O)O)noc1-c1ccc(C2CC2)cc1Cl ; Cmax = 541

Data point: Cc1c(C(=O)Nc2c(C)n(C)n(C3CCCCC3)c2=O)nnn1-c1ccc(C2CC2)cc1Cl ; Cmax = 2010

Data point: Cc1c(C(=O)Nc2c(C)n(C)n(-c3ccccc3F)c2=O)noc1-c1ccc(C2CC2)cc1Cl ; Cmax = 1080

* * *

What fraction unbound was measured for each of the following?
- ASSAY EXPLANATION: Plasma protein binding in rat
- Assay type: ADME, cell-free
- CONDITION LABEL: read-out: PPB

Data point: Cc1c(C(=O)Nc2c(C)n(C)n(C3CCCCC3)c2=O)nnn1-c1ccc(C2CC2)cc1Cl ; fraction unbound = < 0.01

Data point: Cc1c(C(=O)Nc2c(C)n(C)n(-c3ccccc3F)c2=O)noc1-c1ccc(C2CC2)cc1Cl ; fraction unbound = < 0.01

Data point: Cc1c(C(=O)O)noc1-c1ccc(C2CC2)cc1Cl ; fraction unbound = < 0.01

* * *

What half-life was measured for each of the following?
- ASSAY EXPLANATION: Half life in rat at 3 mg/kg, po and 1 mg/kg, iv
- Format: ADME, organism-based
- CONDITION LABEL: in vivo

Data point: Cc1c(C(=O)O)noc1-c1ccc(C2CC2)cc1Cl ; half-life = 1.6 h

Data point: Cc1c(C(=O)Nc2c(C)n(C)n(-c3ccccc3F)c2=O)noc1-c1ccc(C2CC2)cc1Cl ; half-life = 1.9 h

Data point: Cc1c(C(=O)Nc2c(C)n(C)n(C3CCCCC3)c2=O)nnn1-c1ccc(C2CC2)cc1Cl ; half-life = 7.9 h

* * *

What bioavailability was measured for each of the following?
- ASSAY EXPLANATION: Oral bioavailability in rat at 3 mg/kg
- Format: ADME, organism-based
- CONDITION LABEL: in vivo
Write the number in % without appending the unit.

Data point: Cc1c(C(=O)Nc2c(C)n(C)n(-c3ccccc3F)c2=O)noc1-c1ccc(C2CC2)cc1Cl ; bioavailability = 97

Data point: Cc1c(C(=O)Nc2c(C)n(C)n(C3CCCCC3)c2=O)nnn1-c1ccc(C2CC2)cc1Cl ; bioavailability = 82

Data point: Cc1c(C(=O)O)noc1-c1ccc(C2CC2)cc1Cl ; bioavailability = 67

* * *

- ASSAY EXPLANATION: Metabolic stability in rat liver microsomes assessed as half life
- Type: ADME, Microsome
MEASURED METRIC: half-life (min)
Write the number in min without appending the unit.

Data point: Cc1c(C(=O)Nc2c(C)n(C)n(-c3ccccc3F)c2=O)noc1-c1ccc(Cl)cc1F ; half-life = 30.7

Data point: Cc1c(C(=O)Nc2c(C)n(C)n(-c3ccccc3F)c2=O)noc1-c1ccc(Cl)cc1 ; half-life = 70.5

Data point: Cc1c(C(=O)Nc2c(C)n(C)n(-c3ccccc3F)c2=O)noc1-c1ccc(C2CC2)cc1Cl ; half-life = 18.9

Data point: COc1ccc(-c2onc(C(=O)Nc3c(C)n(C)n(-c4ccccc4F)c3=O)c2C)c(C)c1 ; half-life = 45.2

Data point: COc1ccc(-c2onc(C(=O)Nc3c(C)n(C)n(-c4ccccc4F)c3=O)c2C)cc1 ; half-life = 15.8

Data point: Cc1c(C(=O)Nc2c(C)n(C)n(-c3ccccc3F)c2=O)noc1-c1ccc(Cl)cc1Cl ; half-life = 16.7

Reference source for all entries: ChEMBL document CHEMBL5338826
